Listing of entries alongside the reported apparent Kd.
# System: MS2 coat protein
# ASSAY_PROTOCOL: apparent Kd, MS2 coat protein; higher = weaker binding; RNA-MaP array; FMN 200 µM where present
# CONDITION_NOTES: designed as: OFF switch for flavin mononucleotide; no ligand
Form entry: value (nM) — number only.

Illustrative cases are given below, each with its answer.
RESIDUES	SYSTEM_NAME	SCALE_UNIT	OBSERVED
GACGUGUGAGGAUAUGCCGUGCCGGUCCGGAAGGUUCGGGUGCAGAAGGCACAUGAGGAUCACCCAUGUGUAAG	MS2 coat protein	nM	23.4
GCACGGAGUGUAGGAUAUUAGUGCGAUUAGCACUGAGAAGGACAUGAGGAUCACCCAUGUUCCUCAAUAACAUACCUUCCGUGC	MS2 coat protein	nM	13.8
UGUCGGAGCAGAGGAUAUUACAUGAGGAUCACCCAUGUAUGAACCAAUAGCUGGAAACAGCAACGUAAGAAGGCUGCUCCGACA	MS2 coat protein	nM	6.75
UCCGACCUAGGAUAUACCUGGGCCGCCUCGUGUUAUCACCUACAUGAGGAUCACCCAUGUAGAAGGAGGACGGU	MS2 coat protein	nM	46.7
CAACUGUGAGGAUAUGGUGAGUAGUGCCUGAGCGCUGCUCACCAGAAGGCACAUGAGGAUCACCCAUGUAUAAC	MS2 coat protein	nM	42.9

Query :: // apparent Kd lookup, key: `UGUCAUAUAUAGAAGGGUAGUAGGGAUUUACAUGAGGAUCACCCAUGUAUUAUAGGAUAUGUGUAUAGUUUUUAUUCAAGUAUA`
Result :: 28.7

Query :: Fill in the blank: the reported apparent Kd of `AAUAUAAGAGCUGGACUCAAAAGAACAUGAGGAUCACCCAUGUAGGAUAUCAGCACGAUAAGUGCUGAGAAGGACAACCAGCUC` is ____.
Result :: 14.4

Query :: apparent Kd lookup needed for `AUCAAUCGUGUAGGAUAUGCGUGGCGAAGCUAUGCAGAAGGACAUGAGGAUCACCCAUGUCUUUCUGUCUGUGUACAGACAGGA` , thanks.
Result :: 20.4

Query :: I'd like to know its apparent Kd. The sequence in question is `GCCUCAUAGUAGAAGGGACUUAGGCAGUUAAGCAUCAUGUCCAAUUAACAUGAGGAUCACCCAUGUCAGGAUAUACUAAGAGGC`
Result :: 8.03

Query :: What value of apparent Kd has been reported for the following sequence? `GCUAUUGAUGUAGGAUAUGAUAUAGAAACUAUGUCAGAAGGACAUGAGGAUCACCCAUGUCAAUGGAUGGAGAGAAGAAAUGGC`
Result :: 47.8

---

Reported apparent Kd values for the following sequences.
# Tested on: MS2 coat protein
# ASSAY_PROTOCOL: apparent Kd, MS2 coat protein; higher = weaker binding; RNA-MaP array; theophylline 2 mM where present
# CONDITION_NOTES: ligand present: theophylline; designed as: ON switch for theophylline
Provide only the numeric value, understood in nM.

RESIDUES	MEASURED_METRIC	SCALE_UNIT	OBSERVED
ACGACGCAUAGUGAUACCAGCACAACAUGAGGAUCACCCAUGUCACUUAUGUAGUAAUAAUGCCCUUGGCAGCACUAUGCGUCAG	apparent Kd	nM	65.6
UCUUUCUAUGUAGAUACCAGCAUGUUAUAUUUCUAAUGACAUGAGGAUCACCCAUGUAAAUGCCCUUGGCAGCUGCGUUUUCUUU	apparent Kd	nM	13.2
AAACAUGAGGAUCACCCAUGUUCAAUAGAUACCAGUGAUACGGUGCACCCUUGGCAGCUGUUGCUGAGUGAUGGUUCCCUCGGUA	apparent Kd	nM	37.3
AGUGUUGUAACUGAUACCAGACCUUUGCUUAUACAUGAGGAUCACCCAUGUAAAAUGGCGGUCCCUUGGCAGCAGAGAAGACGCA	apparent Kd	nM	12.2
GUAAAUGUGACGGAUACCAGCGUGUUGUAGAACAUGAGGAUCACCCAUGUAGUGAUCAUGCGCCCUUGGCAGCUGGUAUGUUUGU	apparent Kd	nM	841

Query :: Requested read-out: apparent Kd. Entry: `ACGACAUGAGGAUCACCCAUGUAAGGUGAUACCAGACGAAGUAAUGUCCCUUGGCAGCACAAGCAUAGUUGCGAUUAUUGUACGA`
Result :: 158

Query :: What measured apparent Kd goes with `UAUAAAAUAACAGAUACCAGCGUGUUAUAAAACAUGAGGAUCACCCAUGUAGUGAUCAAGCGCCCUUGGCAGCUGGUAUUUUAUA` ?
Result :: 126

Query :: Which apparent Kd value belongs to `AAUAUAAGUGUAAUUUUAUGUAUCUCUGAUACCAGACCCUCAUGUGUCCCUUGGCAGCAGUAACAUGAGGAUCACCCAUGUAAAA` ?
Result :: 310

Query :: Bench note: what apparent Kd did `UGCAUCAUAAUCAUGUUGGUGCUAGGUGAUACCAGCAUCGAAAGAUGCCCUUGGCAGCACCAACAUGAGGAUCACCCAUGUAAUA` show?
Result :: 337

Query :: Would you mind telling me what apparent Kd value was observed for `ACGCUGAUUGAUUACAAUCAGCGAAAAGAUACCAGUGGGUAAUCCCACCCUUGGCAGCUUAAACAUGAGGAUCACCCAUGUGGUA` ?
Result :: 123

---

# Tested on: MS2 coat protein
# ASSAY_PROTOCOL: apparent Kd, MS2 coat protein; higher = weaker binding; RNA-MaP array; FMN 200 µM where present
# CONDITION_NOTES: ligand present: flavin mononucleotide; designed as: ON switch for flavin mononucleotide
MEASURED_METRIC: apparent Kd (nM)
Reply numerically in nM, unit not repeated.

RESIDUES	apparent Kd [nM]
GCUGCUAUCGCAGGAUAUUACAUGGGAAAUAAGACAUGAGGAUCACCCAUGUUAAAUAUCGUAAAUAAGAAGGGCGAUAGCAGC	475

# ---- query sequence ----
Query :: Need apparent Kd, item `AUUAACUACAUAGGAUAUUGAUACAUGAGGAUCACCCAUGUCACGUAUUUAUAUUAAACAUUUGACAAGAAGGAUGUGGUUACA`
Result :: 7.01

---

# Tested on: MS2 coat protein
# ASSAY_PROTOCOL: apparent Kd, MS2 coat protein; higher = weaker binding; RNA-MaP array; FMN 200 µM where present
# CONDITION_NOTES: ligand present: flavin mononucleotide; designed as: OFF switch for flavin mononucleotide
Label rule met when apparent Kd is at or above 20 nM; otherwise label rule not met.

RESIDUES	SYSTEM_NAME	CLASS
CGUGCGUAUGUGAGGAUAUGCUGGUCCUUGGAUCGGCAGAAGGCACAUGAGGAUCACCCAUGUGGUGUCGUACG	MS2 coat protein	rule met

Query :: # check: apparent Kd of `CUCGCGUUAGGAUAUGCUAGCUGAGAAUAAUCUGCAGCGGUGCAGAAGGAACAUGAGGAUCACCCAUGUAGGGA` is greater than or equal to 20 nM
Result :: rule met

Query :: Record `CUGUUAUAUGAAGGAUAUACUUAACAUGAGGAUCACCCAUGUGGUGUUGUGAGUGAGUGAGUUUAGUAGAAGGUCAAUUCUUUU` ; criterion: apparent Kd no lower than 20 nM. Met?
Result :: rule met

Query :: Confirm if apparent Kd reported for the sequence `GGCGACCUAGGAUAUACAUGAGGAUCACCCAUGUUUAUCUAUUAGAUGAAGACGGGUUGUAGAAGGAGGAUAUU` is 20 nM or above.
Result :: rule not met

---

This section presents sequences with their documented apparent Kd values.
# Test system: MS2 coat protein
# ASSAY_PROTOCOL: apparent Kd, MS2 coat protein; higher = weaker binding; RNA-MaP array; FMN 200 µM where present
# CONDITION_NOTES: designed as: ON switch for flavin mononucleotide; no ligand
Report the value in nM with no unit label.

Some sequences with known apparent Kd results, for comparison:
RESIDUES	OBSERVED
GCGAUUUUGUAGAAGGUACGUGAUUAGUCAAAGUAAGGAUAUACUGACAUGAGGAUCACCCAUGUAUUAAUAGUUAACAGUCGC	94.6
UUACUCAUGUAAGGAUAUGCAGCCGUUUCGGUUGCAGAAGGUACUAUAAUACAUGAGGAUCACCCAUGUCUUUUUAAUUUAGAC	78.4
GGGUACAUCGGAGGAUAUCAUGCAAAUACAUGAGGAUCACCCAUGUCGAUGGAGACAUCGGAGAUUGAGAAGGCCGAUGUACCG	21.9

Query :: Please provide the recorded apparent Kd for `ACAUGAGGAUCACCCAUGUAAAAUGAAGAAGGUAUAUACUUGAGGAUCACCCAUGUACAUGGGAAUAAGGAUAUUCUAAUAAUU` , tested on MS2 coat protein.
Result :: 13.5

Query :: What apparent Kd appears in the records for this sequence with MS2 coat protein? `UGGUACUAGGGAGGAUAUGGGAAGAUACAUGAGGAUCACCCAUGUUUAAGAAUGCCGAGAGGCAAUUAGAAGGCCCUAGUACCU`
Result :: 983

Query :: Give recorded apparent Kd with MS2 coat protein for the following sequence: `AUAAAACAUGAGGAUCACCCAUGUCAACAAAGUCGAGGAUAUGGGCAAAUAAAAUAAGAACCAGAAGGCGAAUAAU`
Result :: 398

Query :: Recorded apparent Kd for `ACAAAUCCUGACAUGAGGAUCACCCAUGUUAGAUUGUUAUGUCAGGAUAUUAUCUGGCAACCAGAUGAGAAGGGACGAUUUGUG` with MS2 coat protein, please?
Result :: 722
